# assayName: in vivo
# experimentalConditions: female, ICR CD-1, mouse, plasma, sc, 50 mg/kg, Plasma concentration MKM, s.c. 50 mg/kg, Time 8 (h), Mouse 3; below limit of quantification
Where a SMILES comes first, the peptide text is derived from it. Bridges are numbered along the chain shown (N, C = ends). [ ]: non-standard residue; d: D form. dOrn = NCCC[C@@H](N)C(=O)O
reportedEndpoint: level at 8 h (ng/mL)
Give the value, in units of ng/mL, as a plain number.

q: Reported level at 8 h, compound C[C@@H](O)[C@@H]1NC(=O)[C@@H](CCCNC(=N)N)NC(=O)[C@@H](CCCNC(=N)N)NC(=O)[C@@H](CC(N)=O)NC(=O)[C@@H](NC(=O)[C@@H](Cc2ccccc2)NC(=O)[C@@H](CCCN)NC(=O)[C@H](N)CCCNC(=N)N)[C@@H](C)OC(=O)[C@H](Cc2c[nH]cn2)NC1=O [MKM-A, manikomycin] (H-[dR][dOrn][dF]T[dN][dR][dR]TH; ester 4-C) : ____
a: 108

---

# assayName: in vivo
# experimentalConditions: female, ICR CD-1, mouse, plasma, sc, 50 mg/kg, Plasma concentration MKM, s.c. 50 mg/kg, Time 0.25 (h), Mouse 3
Where a SMILES comes first, the peptide text is derived from it. Bridges are numbered along the chain shown (N, C = ends). [ ]: non-standard residue; d: D form. dOrn = NCCC[C@@H](N)C(=O)O
reportedEndpoint: level at 0.25 h (ng/mL)
Give the value, in units of ng/mL, as a plain number.

q: Reported level at 0.25 h, molecule C[C@@H](O)[C@@H]1NC(=O)[C@@H](CCCNC(=N)N)NC(=O)[C@@H](CCCNC(=N)N)NC(=O)[C@@H](CC(N)=O)NC(=O)[C@@H](NC(=O)[C@@H](Cc2ccccc2)NC(=O)[C@@H](CCCN)NC(=O)[C@H](N)CCCNC(=N)N)[C@@H](C)OC(=O)[C@H](Cc2c[nH]cn2)NC1=O [MKM-A, manikomycin] (H-[dR][dOrn][dF]T[dN][dR][dR]TH; ester 4-C) : ____
a: 9540

---

# assayName: in vivo
# experimentalConditions: female, ICR CD-1, mouse, plasma, sc, 50 mg/kg, Plasma concentration MKM, s.c. 50 mg/kg, Time 1 (h), Mouse 1
Where a SMILES comes first, the peptide text is derived from it. Bridges are numbered along the chain shown (N, C = ends). [ ]: non-standard residue; d: D form. dOrn = NCCC[C@@H](N)C(=O)O
reportedEndpoint: level at 1 h (ng/mL)
Give the value, in units of ng/mL, as a plain number.

q: Reported level at 1 h, compound C[C@@H](O)[C@@H]1NC(=O)[C@@H](CCCNC(=N)N)NC(=O)[C@@H](CCCNC(=N)N)NC(=O)[C@@H](CC(N)=O)NC(=O)[C@@H](NC(=O)[C@@H](Cc2ccccc2)NC(=O)[C@@H](CCCN)NC(=O)[C@H](N)CCCNC(=N)N)[C@@H](C)OC(=O)[C@H](Cc2c[nH]cn2)NC1=O [MKM-A, manikomycin] (H-[dR][dOrn][dF]T[dN][dR][dR]TH; ester 4-C) : ____
a: 6890

---

# assayName: in vivo
# experimentalConditions: female, ICR CD-1, mouse, plasma, sc, 50 mg/kg, Plasma concentration MKM, s.c. 50 mg/kg, Time 1 (h), Mouse 2
Where a SMILES comes first, the peptide text is derived from it. Bridges are numbered along the chain shown (N, C = ends). [ ]: non-standard residue; d: D form. dOrn = NCCC[C@@H](N)C(=O)O
reportedEndpoint: level at 1 h (ng/mL)
Give the value, in units of ng/mL, as a plain number.

q: Reported level at 1 h, molecule C[C@@H](O)[C@@H]1NC(=O)[C@@H](CCCNC(=N)N)NC(=O)[C@@H](CCCNC(=N)N)NC(=O)[C@@H](CC(N)=O)NC(=O)[C@@H](NC(=O)[C@@H](Cc2ccccc2)NC(=O)[C@@H](CCCN)NC(=O)[C@H](N)CCCNC(=N)N)[C@@H](C)OC(=O)[C@H](Cc2c[nH]cn2)NC1=O [MKM-A, manikomycin] (H-[dR][dOrn][dF]T[dN][dR][dR]TH; ester 4-C) : ____
a: 9080
